molecular target: PD-1/PD-L1 (Homo sapiens, UniProt Q9NZQ7); construct: made in house; host or cells: HEK293T; assay: PD-1/PD-L1 Homogenous Time-Resolved Fluorescence (HTRF) binding assay; conditions: PD-L1-His 10 nM, PD-1-Ig 20 nM; value given as range class; read-out: Range or IC50
Sequence (Q9NZQ7 with tags, fused parts or gaps): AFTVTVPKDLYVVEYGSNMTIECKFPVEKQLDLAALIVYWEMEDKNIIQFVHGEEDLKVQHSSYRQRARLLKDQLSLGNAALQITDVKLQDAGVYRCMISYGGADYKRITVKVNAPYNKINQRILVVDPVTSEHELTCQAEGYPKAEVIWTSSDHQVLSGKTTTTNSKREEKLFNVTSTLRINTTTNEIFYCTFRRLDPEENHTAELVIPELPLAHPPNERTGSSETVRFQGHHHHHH
pIC50: −log10 of the molar value.
pIC50 reference
readoutName: pIC50

compound=Cc1c(COc2cc(OCc3cncc(C#N)c3)c(CN3C[C@@H](O)C[C@H]3C(=O)O)cc2Cl)cccc1-c1cccc(OCC(=O)N2CC[C@@H](O)C2)c1 testedon="PD-1/PD-L1 (Homo sapiens, UniProt Q9NZQ7)" readoutname=pIC50 observedmeasurement="7.00 to 8.00"
compound=Cc1c(COc2cc(OCc3cncc(C#N)c3)c(CN3CCCC[C@H]3C(=O)O)cc2Cl)cccc1-c1cccc(C(=O)N2CCOCC2)c1C testedon="PD-1/PD-L1 (Homo sapiens, UniProt Q9NZQ7)" readoutname=pIC50 observedmeasurement="5.70 to 7.00"
compound=Cc1c(COc2cc(OCc3cncc(C#N)c3)c(CN[C@@](C)(CO)C(=O)O)cc2Cl)cccc1-c1cccc(OCCCN2CCOCC2)c1C testedon="PD-1/PD-L1 (Homo sapiens, UniProt Q9NZQ7)" readoutname=pIC50 observedmeasurement="8.00 to 9.68"
compound=Cc1c(COc2cc(OCc3cncc(C#N)c3)c(CN(C)C(C)(CO)CO)c(C)c2Cl)cccc1-c1cccc(OCCCN2CC[C@@H](O)C2)c1C testedon="PD-1/PD-L1 (Homo sapiens, UniProt Q9NZQ7)" readoutname=pIC50 observedmeasurement="8.00 to 9.68"
compound="Cc1c(COc2cc(OCc3cncc(S(C)(=O)=O)c3)c(CNC(C)(CO)C(=O)O)cc2Cl)cccc1-c1cccc(OCCCN2CCC(CO)(C(=O)O)C2)c1Cl (single isomer, unassigned) [Example 1063]" testedon="PD-1/PD-L1 (Homo sapiens, UniProt Q9NZQ7)" readoutname=pIC50 observedmeasurement="8.00 to 9.68"
compound=Cc1c(OCCCN2CC[C@@H](O)C2)cccc1-c1cccc(COc2cc(OCc3cncc(C#N)c3)c(CN(CCc3cncc(C#N)c3)C(CO)CO)cc2Cl)c1Cl testedon="PD-1/PD-L1 (Homo sapiens, UniProt Q9NZQ7)" readoutname=pIC50 observedmeasurement="8.00 to 9.68"
